- target desc: T1, TNFR1 (Homo sapiens, UniProt P19438)
- T1 chain: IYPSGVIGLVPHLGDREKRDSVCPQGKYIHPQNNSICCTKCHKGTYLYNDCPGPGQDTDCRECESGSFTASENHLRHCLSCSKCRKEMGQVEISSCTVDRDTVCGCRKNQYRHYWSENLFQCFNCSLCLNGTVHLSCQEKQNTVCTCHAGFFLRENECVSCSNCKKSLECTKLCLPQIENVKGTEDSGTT
- procedure summary: yeast display SC50
observed property: apparent Kd (screen) (nM)
Field: numeric (nM). Do not append units.

INSERT INTO results (binder, observed_property, unit_annotation, reported_measurement) VALUES
  ('E4T (designed binder) SMETEVEKAAKEYEKKKKEAIEKHLEKLKAKDKEAAERFLKELEEAAKEYAKDEAKTMSEEEAKRRAKKYKEKVLLSELSEEEQKEIKEAEEKLVRTILKYVEEAAK', 'apparent Kd (screen)', 'nM', 0.446);

// switching to the query binder
Exercise: # get_value(readout='apparent Kd (screen)', item= R96T (designed binder) SMEEEVEKAAKEYEKKKKEAIEKHLEKLKAKDKEAAERFLKELEEAAKEYAKDEAKTMSEEEAKRRAKKYKEKVLLSELSEEEQKEIKEAEEKLVTTILKYVEEAAK )
Solution: 1.54
